# Measured on: NHE3 (UniProt P48764)
# Test description: Cell-based NHE3 activity under transient conditions (BCECF-AM intracellular pH, FLIPR)
# Parameters: species or system Rat or Human
# Conditions: embodiment compounds, opossum kidney cells expressing NHE3, read-out: Cell-based NHE3 inhibition IC50 (uM) under transient conditions
Measured endpoint: IC50 (µM)

Sample records with IC50:
INSERT INTO assay_data (compound, scale_unit, test_value) VALUES
  ('CN1Cc2c(Cl)cc(Cl)cc2C(c2ccc3c(c2)C(=O)N(CCOCCOCCNC(=O)CN(CCN(CC(=O)O)CC(=O)NCCOCCOCCN2Cc4ccc(C5CN(C)Cc6c(Cl)cc(Cl)cc65)cc4C2=O)CC(=O)O)C3)C1 (centres unmarked)', 'µM', 0.91),
  ('CN1Cc2c(Cl)cc(Cl)cc2C(c2ccc3c(c2)C(=O)N(CCOCCOCCOCCNC(=O)[C@@H](O)[C@@H](O)C(=O)NCCOCCOCCOCCN2Cc4ccc(C5CN(C)Cc6c(Cl)cc(Cl)cc65)cc4C2=O)C3)C1 (some centres unmarked)', 'µM', 0.26),
  ('CN1Cc2c(Cl)cc(Cl)cc2C(c2ccc3c(c2)S(=O)(=O)N(CCOCCOCCNC(=O)NCCCCNC(=O)NCCOCCOCCN2Cc4ccc(C5CN(C)Cc6c(Cl)cc(Cl)cc65)cc4S2(=O)=O)C3)C1 (centres unmarked)', 'µM', 0.43);

a = CN1Cc2c(Cl)cc(Cl)cc2C(c2ccc3c(c2)C(=O)N(CCOCCOCCNC(=O)[C@H](O)[C@H](O)[C@@H](O)[C@@H](O)C(=O)NCCOCCOCCN2Cc4ccc(C5CN(C)Cc6c(Cl)cc(Cl)cc65)cc4C2=O)C3)C1 (some centres unmarked)
b = CN1Cc2c(Cl)cc(Cl)cc2C(c2ccc3cnn(CCOCCOCCNC(=O)NCCCCNC(=O)NCCOCCOCCn4ncc5ccc(C6CN(C)Cc7c(Cl)cc(Cl)cc76)cc54)c3c2)C1 (centres unmarked) [Embodiment D1-P2]
Challenge: Hey, between a and b which has a smaller measured IC50? Your choice should be expressed through its label.
Response given: a

###

# Measured on: NHE3 (UniProt P48764)
# Sequence (P48764 1-834): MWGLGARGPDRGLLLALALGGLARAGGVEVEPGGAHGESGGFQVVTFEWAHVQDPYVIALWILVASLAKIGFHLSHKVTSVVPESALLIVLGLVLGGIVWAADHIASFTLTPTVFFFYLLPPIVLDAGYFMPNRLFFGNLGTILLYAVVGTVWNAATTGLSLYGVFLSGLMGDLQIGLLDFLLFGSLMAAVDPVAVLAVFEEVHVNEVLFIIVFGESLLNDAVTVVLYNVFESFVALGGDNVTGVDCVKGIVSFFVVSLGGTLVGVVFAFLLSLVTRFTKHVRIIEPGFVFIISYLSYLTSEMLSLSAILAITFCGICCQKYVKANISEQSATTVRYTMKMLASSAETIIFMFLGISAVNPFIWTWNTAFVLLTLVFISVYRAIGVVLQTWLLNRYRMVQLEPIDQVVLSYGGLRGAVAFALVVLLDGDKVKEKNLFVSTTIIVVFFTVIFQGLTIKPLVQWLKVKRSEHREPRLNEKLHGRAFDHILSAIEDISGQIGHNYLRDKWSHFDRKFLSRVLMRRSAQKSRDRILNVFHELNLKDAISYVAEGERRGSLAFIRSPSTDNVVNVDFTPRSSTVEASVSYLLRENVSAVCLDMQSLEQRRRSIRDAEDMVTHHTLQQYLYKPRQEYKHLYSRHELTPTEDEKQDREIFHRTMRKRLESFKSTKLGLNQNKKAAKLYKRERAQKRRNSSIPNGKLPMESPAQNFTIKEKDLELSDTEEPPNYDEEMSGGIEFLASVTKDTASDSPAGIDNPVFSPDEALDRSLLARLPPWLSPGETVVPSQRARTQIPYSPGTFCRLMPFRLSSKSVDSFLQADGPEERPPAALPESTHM
# Test description: Cell-based NHE3 activity under transient conditions (BCECF-AM intracellular pH, FLIPR)
# Parameters: species or system Rat or Human
# Conditions: embodiment compounds, opossum kidney cells expressing NHE3, read-out: Cell-based NHE3 inhibition IC50 (uM) under transient conditions
Where a name gives a salt, the structure may show the parent alone.
Measured endpoint: IC50 (µM)

Please review the following examples before continuing.
INSERT INTO measurements (compound, measured_endpoint, test_value) VALUES
  ('CN1Cc2c(Cl)cc(Cl)cc2C(c2ccc3c(c2)C(=O)N(CCOCCOCCOCCNC(=O)COCC(=O)NCCOCCOCCOCCN2Cc4ccc(C5CN(C)Cc6c(Cl)cc(Cl)cc65)cc4C2=O)C3)C1 (centres unmarked)', 'IC50', 0.43),
  ('CN1Cc2c(Cl)cc(Cl)cc2C(c2ccc3c(c2)C(=O)N(CCOCCOCCOCCNC(=O)NCCCCNC(=O)NCCOCCOCCCN2Cc4ccc(C5CCCc6ccc(Cl)cc65)cc4C2=O)C3)C1 (centres unmarked)', 'IC50', 1.05),
  ('CN1Cc2c(Cl)cc(Cl)cc2C(c2ccc3cnn(CCOCCOCCOCCNC(=O)NCCCCNC(=O)NCCOCCOCCOCCn4ncc5ccc(C6CN(C)Cc7c(Cl)cc(Cl)cc76)cc54)c3c2)C1 (centres unmarked) [Embodiment D2-P2 hydrochloride salt]', 'IC50', 0.27);

A = CN1Cc2c(Cl)cc(Cl)cc2C(c2ccc3ccn(CCOCCOCCNC(=O)NCCCCNC(=O)NCCOCCOCCn4ccc5ccc(C6CN(C)Cc7c(Cl)cc(Cl)cc76)cc5c4=O)c(=O)c3c2)C1 (centres unmarked)
B = CN1Cc2c(Cl)cc(Cl)cc2C(c2ccc3c(c2)C(=O)N(CCOCCOCCOCCNC(=O)CN(CCN(CC(=O)O)CC(=O)NCCOCCOCCOCCN2Cc4ccc(C5CN(C)Cc6c(Cl)cc(Cl)cc65)cc4C2=O)CC(=O)O)C3)C1 (centres unmarked)
Challenge: Pick one: A or B . Which has the bigger IC50 number? Pick one; state its label.
Response given: B
(B: 0.62 µM, A: 0.23 µM)

Hello, the source for this data is patent US20240082406A1, in case you need it.
